meta.source: ChEMBL document CHEMBL1129452

Target: Human immunodeficiency virus type 1 reverse transcriptase (Human immunodeficiency virus 1)
Assay: Tested for the inhibition of mutant type (Ile100) HIV-1 (IIIB) RT
Hi! Could you tag entries with IC50 below 800 nM as met, and those at or above as not met? Much appreciated.

Worked examples follow.
>>> assigned_class("CCOc1ccc(F)c(CC/N=C(\\S)Nc2nc(C(F)(F)F)cs2)c1Cl")
"not met"
>>> assigned_class("S=C(NCCn1nc2ccccc2n1)Nc1ccc(Br)cn1")
"not met"
>>> assigned_class("S=C(NCCc1c[nH]c2ccccc12)Nc1ccc(Br)cn1")
"not met"
>>> assigned_class("O=C1c2c(Cl)ccc(Cl)c2C(=O)N1CCNC(=S)Nc1ccc(Cl)cn1")
"met"
>>> assigned_class("CCOc1ccc(F)c(CCNC(=S)Nc2ccc(Br)cn2)c1F")
"met"

Does this compound meet the criterion IC50 < 800 nM? CCOc1ccc(F)c(CCNC(=S)Nc2ccc(C#N)cn2)c1Cl
met

How about CN(C)c1ccc(F)c(CCNC(=S)Nc2ccc(Br)cn2)c1F ?
not met

Check CNC(=O)c1ccc(F)c(CC/N=C(\S)Nc2ccc(Br)cn2)c1F too.
not met

Record: CCc1cc(NCc2nc3c(Cl)ccc(Cl)c3o2)c(O)nc1C
not met

Another compound to check: CCOc1ccc(F)c(CC/N=C(\S)Nc2ccc(Br)cn2)c1C#N
met

For CCOc1ccc(F)c(CCNC(=S)Nc2ccc(Cl)cn2)c1Cl then?
met

Same read-out for COc1ccc(F)c(CC/N=C(\S)Nc2ccc(Cl)cn2)c1C#N ?
not met

How about this compound: Fc1ccoc1CC/N=C(\S)Nc1ccc(Cl)cn1
met

Subsequent entry: CC(=O)NCc1ccc(F)c(CCNC(=S)Nc2ccc(Br)cn2)c1F
not met
